Value source: patent US9855230B2

Tested on: recombinant NL4-3 virus (nef section replaced with Renilla luciferase gene) in MT-2 cells
Test: whole plant or invertebrate
Assay type: cell-based, HIV
Settings: NL43, luciferase activity in MT-2 cells infected 4-5 days with recombinant NL4-3 virus, read-out: Activity
pEC50: −log10 of the molar value. Where a name gives a salt, the structure may show the parent alone.
test.readout: pEC50

                                   compound  result
0  COC(=O)Nc1ccc(-n2ccnc2[C@@H](Cc2ccccc2)NC(=O)NS(=O)(=O)c2ccccc2C)cc1 [Example 39]  < 6.00
1  CCOc1ccc(-n2ccnc2[C@H](Cc2ccccc2)NC(=O)NS(=O)(=O)c2ccccc2C)cc1 [Example 7]  > 7.00
2  O=C(N[C@H](Cc1cc(F)cc(F)c1)c1ncccc1-c1cccc(C(=O)NC2CC2)c1)NS(=O)(=O)c1ccccc1Cl [Example 106, TFA]  < 6.00

Now look at this one.
Item Cc1ccc2cc(-n3ccnc3[C@H](Cc3ccccc3)NC(=O)NS(=O)(=O)c3ccccc3C)ccc2n1 [Example 67] with recombinant NL4-3 virus (nef section replaced with Renilla luciferase gene) in MT-2 cells - pEC50?
> 7.00

----------
# key: entry, value: CC50 at 4 day
Assay: Compound cytotoxicity (CC50), XTT-based colorimetric assay
Assay type: cell-based
Settings: human; uninfected MT2 cells, day 4, XTT assay
Counter-ions that a name gives are not always drawn.

Below: 4 compounds and their reported CC50 at 4 day.
In [3]: df
Out[3]:
                                   compound    result
0  Cc1ccc(-n2ccnc2[C@H](Cc2ccccc2)NC(=O)NS(=O)(=O)c2ccccc2C)cc1Cl  > 100 µM
1  Cc1ccccc1S(=O)(=O)NC(=O)N[C@@H](Cc1ccccc1)c1nccn1-c1ccc(Br)cc1  > 100 µM
2  Cc1ccccc1S(=O)(=O)NC(=O)N[C@@H](Cc1ccccc1)c1nccn1-c1ccc2c(c1)ncn2C  > 100 µM
3  O=C(N[C@H](Cc1cc(F)cc(F)c1)c1ncccc1-c1c[nH]c2ccccc12)NS(=O)(=O)c1ccccc1Cl [Example 102, TFA]   > 33 µM

Reported CC50 at 4 day for COC(=O)Nc1ccc(-n2ccnc2[C@H](Cc2ccccc2)NC(=O)NS(=O)(=O)c2cccc(Cl)c2Cl)cc1 : what is it?
> 100 µM

Reported CC50 at 4 day for CCOC(=O)Nc1ccc(-n2ccnc2[C@H](Cc2ccccc2)NC(=O)NS(=O)(=O)c2ccccc2C)cc1 : what is it?
> 100 µM

Reported CC50 at 4 day for Cc1nc2cc(-n3ccnc3[C@H](Cc3ccccc3)NC(=O)NS(=O)(=O)c3ccccc3C)ccc2s1 : what is it?
> 100 µM

Reported CC50 at 4 day for Cc1ccccc1S(=O)(=O)NC(=O)N[C@@H](Cc1ccccc1)c1nccn1-c1cnn(Cc2ccccc2)c1 : what is it?
> 100 µM

Reported CC50 at 4 day for Cc1ccccc1S(=O)(=O)NC(=O)N[C@@H](Cc1cc(F)cc(F)c1)c1ncccc1-c1cccc(C(=O)OC(C)(C)C)c1 [Example 130, TFA] : what is it?
53 µM

Reported CC50 at 4 day for COc1ccc(-c2c(C(Cc3ccccc3)NC(=O)NS(=O)(=O)c3ccccc3C)nnn2C)cc1 (racemic) : what is it?
> 100 µM

Reported CC50 at 4 day for Cc1ccccc1S(=O)(=O)NC(=O)N[C@H](Cc1ccccc1)c1ncccc1Br [Example 112, TFA] : what is it?
> 100 µM

Reported CC50 at 4 day for Cc1ccccc1S(=O)(=O)NC(=O)N[C@@H](Cc1cc(F)cc(F)c1)c1ncccc1-c1coc2ccccc12 [Example 127, TFA] : what is it?
72 µM

Reported CC50 at 4 day for Cc1ccccc1S(=O)(=O)NC(=O)N[C@@H](Cc1cc(F)cc(F)c1)c1ncccc1-c1ccc(F)c(C(=O)O)c1 [Example 131, TFA] : what is it?
> 100 µM

Reported CC50 at 4 day for Cc1ccccc1S(=O)(=O)NC(=O)N[C@@H](Cc1ccccc1)c1nccn1-c1ccc(OC(C)C)cc1 : what is it?
> 100 µM
